Source of measurements: patent US12365738B2

targetOrSystem: T1, hIL-11Rα (Homo sapiens, UniProt Q14626)
T1 sequence (Q14626 23-422): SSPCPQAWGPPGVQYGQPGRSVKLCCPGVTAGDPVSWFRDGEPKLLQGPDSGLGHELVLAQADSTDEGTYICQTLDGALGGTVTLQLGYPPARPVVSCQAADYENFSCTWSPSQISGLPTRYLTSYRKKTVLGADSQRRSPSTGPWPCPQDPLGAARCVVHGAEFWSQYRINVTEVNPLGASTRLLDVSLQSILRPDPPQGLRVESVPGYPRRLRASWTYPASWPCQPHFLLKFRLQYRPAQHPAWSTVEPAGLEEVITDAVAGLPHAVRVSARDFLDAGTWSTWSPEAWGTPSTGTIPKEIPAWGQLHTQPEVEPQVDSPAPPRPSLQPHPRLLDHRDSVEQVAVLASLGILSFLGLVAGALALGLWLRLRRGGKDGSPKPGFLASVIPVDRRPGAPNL
protocolSummary: Kinetic binding analysis by biolayer interferometry (protein G biosensors, Octet RED96e)
Task for the reader: assign each of the following molecules its reported ka.
Numbers only, in M⁻¹ s⁻¹.

A selection of reference data follows.
[
  {
    "molecule": "mAb6: anti-IL-11Rα antibody, human IgG4 (S228P), kappa; VH SEQ ID NO: 203, VL SEQ ID NO: 204 (antibody, V domains shown, human IgG4 S228P and kappa constant regions; mAb6 VH Chain; mAb6 VL Chain) VH: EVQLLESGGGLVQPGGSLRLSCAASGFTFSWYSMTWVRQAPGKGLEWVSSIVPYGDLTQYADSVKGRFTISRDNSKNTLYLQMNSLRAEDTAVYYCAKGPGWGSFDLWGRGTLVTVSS VL: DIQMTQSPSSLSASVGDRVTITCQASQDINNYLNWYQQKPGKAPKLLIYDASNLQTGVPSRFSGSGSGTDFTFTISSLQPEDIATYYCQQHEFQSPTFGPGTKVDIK",
    "measuredEndpoint": "ka",
    "valueUnits": "M⁻¹ s⁻¹",
    "testResult": 800000
  },
  {
    "molecule": "mAb15: anti-IL-11Rα antibody, human IgG4 (S228P), kappa; VH SEQ ID NO: 221, VL SEQ ID NO: 222 (antibody, V domains shown, IgG4 S228P kappa constant regions; mAb15 VH Chain; mAb15 VL Chain) VH: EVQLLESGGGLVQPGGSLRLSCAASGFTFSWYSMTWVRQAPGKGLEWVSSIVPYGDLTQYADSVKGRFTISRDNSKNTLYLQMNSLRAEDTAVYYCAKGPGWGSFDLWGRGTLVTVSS VL: DIQMTQSPSSLSASVGDRVTITCQASQDINNYLNWYQQKPGKAPKLLIYDASNLQTGVPSRFSGSGSGTDFTFTISSLQPEDIATYYCQQHETQTPTFGPGTKVDIK",
    "measuredEndpoint": "ka",
    "valueUnits": "M⁻¹ s⁻¹",
    "testResult": 84000
  },
  {
    "molecule": "mAb10: anti-IL-11Rα antibody, human IgG4 (S228P), kappa; VH SEQ ID NO: 211, VL SEQ ID NO: 212 (antibody, V domains shown, IgG4 S228P kappa constant regions; mAb10 VH Chain; mAb10 VL Chain) VH: EVQLLESGGGLVQPGGSLRLSCAASGFTFSWYSMTWVRQAPGKGLEWVSSIVAYGDLTQYADSVKGRFTISRDNSKNTLYLQMNSLRAEDTAVYYCAKGPGWGSFDLWGRGTLVTVSS VL: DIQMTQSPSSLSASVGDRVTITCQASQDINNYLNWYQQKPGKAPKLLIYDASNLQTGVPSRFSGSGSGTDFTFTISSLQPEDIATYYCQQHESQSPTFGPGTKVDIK",
    "measuredEndpoint": "ka",
    "valueUnits": "M⁻¹ s⁻¹",
    "testResult": 840000
  }
]

Kindly review the next molecule as well.
Data point: mAb11: anti-IL-11Rα antibody, human IgG4 (S228P), kappa; VH SEQ ID NO: 213, VL SEQ ID NO: 214 (antibody, V domains shown, IgG4 S228P kappa constant regions; mAb11 VH Chain; mAb11 VL Chain) VH: EVQLLESGGGLVQPGGSLRLSCAASGFTFSWYSMTWVRQAPGKGLEWVSSIVDYGDLTQYADSVKGRFTISRDNSKNTLYLQMNSLRAEDTAVYYCAKGPGWGSFDLWGRGTLVTVSS VL: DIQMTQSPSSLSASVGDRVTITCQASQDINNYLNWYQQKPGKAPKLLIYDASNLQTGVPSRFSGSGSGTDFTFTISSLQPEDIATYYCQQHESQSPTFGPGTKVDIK ; ka = 32900
